Parameter Activity: see the listing below.
tested on: NCI-H460; experiment: Cell cycle arrest in human NCI-H460 cells assessed as accumulation at S phase at GI50 after 48 hrs by flow cytometry; assay type: functional
Quantity Measured: Activity

• COC(=O)c1sc2cc(C#Cc3ccccc3N)cnc2c1N = 23.1%
• COC(=O)c1sc2cc(C#Cc3ccc(OC)cc3)cnc2c1N = 22%
• C[S+](C)[O-] [DIMETHYL SULFOXIDE] = 28.8%
• COC(=O)c1sc2cc(C#Cc3ccc(N)cc3)cnc2c1N = 18.6%

====

assay: Growth inhibition of human A375-C5 cells after 48 hrs by SRB assay; format: functional; conditions: A375-C5, 48 h
Quantity Measured: GI50 (µM)

* COC(=O)c1sc2cc(C#Cc3ccc(F)cc3)cnc2c1N | 48.4
* COC(=O)c1sc2cc(C#Cc3cccc(N)c3)cnc2c1N | 11.6
* COC(=O)c1sc2cc(C#Cc3ccccc3N)cnc2c1N | 3.1
* COC(=O)c1sc2cc(C#Cc3ccccn3)cnc2c1N | 13.9
* COC(=O)c1sc2cc(C#Cc3ccc(N(C)C)cc3)cnc2c1N | 17.7
* COC(=O)c1sc2cc(C#Cc3ccc(N)cc3)cnc2c1N | 4.8
* COC(=O)c1sc2cc(C#Cc3ccsc3)cnc2c1N | 29.6

====

system: MCF7; test: Growth inhibition of human MCF7 cells after 48 hrs by SRB assay; assay type: functional; settings: MCF7, 48 h
# satisfied = GI50 below 30 µM (exclusive); not satisfied = GI50 at/above 30 µM

* COC(=O)c1sc2cc(C#Cc3ccccc3N)cnc2c1N | satisfied
* COC(=O)c1sc2cc(C#Cc3ccsc3)cnc2c1N | satisfied
* COC(=O)c1sc2cc(C#Cc3cccc(OC)c3)cnc2c1N | not satisfied
* COC(=O)c1sc2cc(C#Cc3cccnc3)cnc2c1N | not satisfied
* COC(=O)c1sc2cc(C#Cc3ccccc3OC)cnc2c1N | not satisfied
* COC(=O)c1sc2cc(C#Cc3cccc(N)c3)cnc2c1N | satisfied
* COC(=O)c1sc2cc(C#Cc3ccccc3F)cnc2c1N | not satisfied
* COC(=O)c1sc2cc(C#Cc3ccccc3)cnc2c1N | not satisfied
* COC(=O)c1sc2cc(C#Cc3ccc(N)cc3)cnc2c1N | satisfied
* COC(=O)c1sc2cc(C#Cc3ccc(OC)cc3)cnc2c1N | satisfied
* COC(=O)c1sc2cc(C#Cc3ccc(F)cc3)cnc2c1N | satisfied
* COC(=O)c1sc2cc(C#Cc3ccccn3)cnc2c1N | not satisfied
* COC(=O)c1sc2cc(C#Cc3ccc(N(C)C)cc3)cnc2c1N | satisfied

====

test: Growth inhibition of human A375-C5 cells after 48 hrs by SRB assay; type: functional; conditions: A375-C5, 48 h
Parameter GI50: see the listing below.
Quantity Measured: GI50

* COC(=O)c1sc2cc(C#Cc3ccccc3OC)cnc2c1N | > 47.3 µM
* COC(=O)c1sc2cc(C#Cc3cccnc3)cnc2c1N | > 150 µM
* COC(=O)c1sc2cc(C#Cc3ccc(OC)cc3)cnc2c1N | > 37.5 µM
* COC(=O)c1sc2cc(C#Cc3ccccc3F)cnc2c1N | > 150 µM
* COC(=O)c1sc2cc(C#Cc3cccc(OC)c3)cnc2c1N | > 75 µM
* COC(=O)c1sc2cc(C#Cc3ccccc3)cnc2c1N | > 150 µM
